tested.target: human ether-à-go-go-related gene (hERG) potassium channel (human);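 further: peak tail current of the secondary pulse compared with the same well before compound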
Sequence (Q12809 whole entry, looked up): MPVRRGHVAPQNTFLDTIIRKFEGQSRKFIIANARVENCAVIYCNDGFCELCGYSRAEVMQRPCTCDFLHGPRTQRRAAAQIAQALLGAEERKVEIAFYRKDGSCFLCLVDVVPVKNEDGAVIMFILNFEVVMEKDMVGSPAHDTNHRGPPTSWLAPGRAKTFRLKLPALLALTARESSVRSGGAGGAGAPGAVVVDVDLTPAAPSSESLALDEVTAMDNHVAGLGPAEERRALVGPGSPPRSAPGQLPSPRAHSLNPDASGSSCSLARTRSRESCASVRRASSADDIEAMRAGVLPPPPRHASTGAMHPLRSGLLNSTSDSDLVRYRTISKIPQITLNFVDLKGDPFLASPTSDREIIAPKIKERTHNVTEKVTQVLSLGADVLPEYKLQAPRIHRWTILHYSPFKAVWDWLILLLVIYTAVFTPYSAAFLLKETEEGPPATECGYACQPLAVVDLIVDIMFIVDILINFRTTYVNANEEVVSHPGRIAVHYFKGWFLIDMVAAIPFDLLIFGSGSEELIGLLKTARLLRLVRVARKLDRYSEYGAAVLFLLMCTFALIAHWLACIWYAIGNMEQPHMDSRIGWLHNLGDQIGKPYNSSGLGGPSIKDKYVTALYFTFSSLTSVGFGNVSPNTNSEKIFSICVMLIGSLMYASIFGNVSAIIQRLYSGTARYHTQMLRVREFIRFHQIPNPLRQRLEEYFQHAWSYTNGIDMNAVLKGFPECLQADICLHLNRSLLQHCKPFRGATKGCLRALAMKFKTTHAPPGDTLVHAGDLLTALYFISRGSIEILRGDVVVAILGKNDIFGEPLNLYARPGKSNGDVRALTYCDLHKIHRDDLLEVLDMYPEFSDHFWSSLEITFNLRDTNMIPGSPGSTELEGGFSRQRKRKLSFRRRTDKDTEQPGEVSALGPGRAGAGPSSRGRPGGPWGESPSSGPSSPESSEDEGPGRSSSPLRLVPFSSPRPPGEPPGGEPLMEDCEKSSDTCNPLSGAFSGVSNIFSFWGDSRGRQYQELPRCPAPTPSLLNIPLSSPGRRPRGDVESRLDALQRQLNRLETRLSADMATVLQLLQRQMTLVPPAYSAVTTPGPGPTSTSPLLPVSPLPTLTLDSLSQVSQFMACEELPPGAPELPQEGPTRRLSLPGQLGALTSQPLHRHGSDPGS
test: primary screen, population patch clamp on CHO cells stably expressing hERG; higher = less effect of the substance
Experimental: Briefly, Chinese hamster ovary (CHO) cells stably expressing the hERG channel were dislodged from tissue culture flasks and dispensed into PPC plates. […] During the recording, background leak currents were estimated by a 100 ms step to -80 mV from an initial holding potential of -70 mV and subtracted from the subsequent current measurement. The campaign was conducted in two phases using slight differences in recording protocol. […]
Out of some 310,000 compounds screened, about 14,000 (4.5%) showed an effect of 50% or more. Effects have a minus sign here. What follows is part of a selection rich in strong results, with near analogues and random picks from the rest.
Kindly supply the reported hERG current change (%, negative = inhibition) at 10uM values for the records listed here.
Answers are plain numbers, in %.

compound=O=C(CSc1nc2ccccc2c(=O)n1Cc1ccco1)N1CCN(c2ccccc2)CC1 test_result=-74.9
compound=O=C(CCC1CCN(Cc2ccccc2O)CC1)NC1CC1 test_result=-23.7
compound=CCOC(=O)N1CCc2c(sc(NC(=O)CN3CCOCC3)c2C#N)C1 test_result=-1.09
compound=COc1ccc(-c2noc(-c3ccoc3C)n2)cc1 test_result=39.5
compound=CCCOc1ccc(OC(=O)Cc2ccc(OC)c(S(=O)(=O)N3CCOCC3)c2)cc1 test_result=-21.7
compound=CN(c1ccccc1)c1nc(N)c([N+](=O)[O-])c(NCc2ccccc2)n1 test_result=17.6

Dear reader, for each entry below, please note its hERG current change (%, negative = inhibition) at 10uM.
1. COc1ccc(CCNC(C)C(=O)Nc2ccc(S(N)(=O)=O)cc2)cc1 (stereo not shown)
2. Cc1nc(-c2cccc(S(=O)(=O)N3CCC(C)CC3)c2)cs1

[-9.23, -13.4]

Dear reader, for each entry below, please note its hERG current change (%, negative = inhibition) at 10uM.
1. COc1cc(SC)ccc1C(=O)OCc1nc2ccsc2c(=O)[nH]1
2. CCOC(=O)C1CCN(S(=O)(=O)c2cccc(-c3cn4cc(C)ccc4n3)c2)CC1
3. CC(C)c1ccc(NC(=O)NCc2ccc3c(c2)OCO3)cc1
4. Cc1cc(F)ccc1N1CCC(N2CCN(C(C)C)C(CCO)C2)CC1 (stereo not shown)
5. CCn1c(SCC(=O)N2CCN(c3cccc(Cl)c3)CC2)nc2ccccc2c1=O

-30.6
-3.7
13.4
-24.7
-39.1

Dear reader, for each entry below, please note its hERG current change (%, negative = inhibition) at 10uM.
1. CCOC(=O)CSc1nc2ccccc2c(=O)n1Cc1ccco1
2. CCOC(=O)C1CCN(S(=O)(=O)c2cccc(-c3cn4cc(Cl)ccc4n3)c2)CC1
3. O=C(CCC1CCCN(Cc2cccc(Cl)c2)C1)NCc1ccccc1F (stereo not shown)
4. CCCCOC(=O)c1ccc(NC(=O)CSc2nncn2C)cc1
5. NS(=O)(=O)c1ccc(N2C(=O)C(=O)/C(=C(/O)c3ccccc3)C2c2ccc(Cl)cc2)cc1 (stereo not shown)
6. O=C(c1cccc(F)c1)N1C2C=CC(C2)C1(C(F)(F)F)C(F)(F)F (stereo not shown)
7. CCOC(=O)N1CCc2c(sc(NC(=O)CN3CCN(C)CC3)c2C(=O)Nc2ccccc2)C1
8. COc1cc2c(cc1NC(=O)CN1C(=O)NC3(CCc4ccccc43)C1=O)oc1ccccc12 (stereo not shown)

-18.1
-58
-50.9
-4.57
18.1
-0.667
-77.2
7.1

Dear reader, for each entry below, please note its hERG current change (%, negative = inhibition) at 10uM.
1. O=c1c2ccccc2nnn1CSc1nc2ccccc2c(=O)n1Cc1ccco1
2. CC(=O)Nc1ccc(S(=O)(=O)N(C)CC(=O)OCC(=O)N(C)C2CCS(=O)(=O)C2)cc1 (stereo not shown)
3. COc1ccc([C@H]2[C@@H](C#N)[C@H](C#N)N3CCCN23)cc1
4. CC1CCN(S(=O)(=O)c2cccc(-c3cn4cc(Cl)ccc4n3)c2)CC1
5. CN(C)c1ccc(CNC(=O)CCNS(=O)(=O)c2cc(Br)cnc2N)cc1
6. O=C(CSc1nc2ccccc2c(=O)n1Cc1ccco1)N1CCCCCC1
7. Cc1nc(-c2cccc(S(=O)(=O)N3CCCCCC3)c2)cs1

1. -6.44
2. 18.8
3. 14.2
4. -5.86
5. 12
6. -76.4
7. -23.2
